The reported numbers originate from the supplement of paper PMC10567573.

Assay: protein stability index of a GFP-peptide fusion (GPS, HEK-293T) (PSI 1-6); higher = more stable;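 further: 24-mer peptide tiles fused after GFP, lentivirally expressed, FACS-sorted into six equal bins by GFP/DsRed ratio, decoded by Illumina sequencing, PSI is the read-weighted mean bin number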
Conditions: treatment: MLN4924 1 uM, 8 h; c terminus: a fixed tail appended
Assay Readout: protein stability index
Answer with a number only.

# Item Sequence, Assay Readout, Reported Result
data = [
    ("VNGDGSRENGNNSSDKVRGIETLE [PHTF1]", "protein stability index", 5.22),
    ("DEDDEDEDEDEDEDEDEDKEEEEE [TAF7L]", "protein stability index", 5.51),
    ("HVASLADDKMVRFWRIDEDYPVQV [WSB1]", "protein stability index", 3.02),
    ("FNKPSRVPAPEAFRDPIWSTWALY [MYORG]", "protein stability index", 2.25),
    ("QAKPEKAAVAQKPRSHFTTPAPMS [MYBL2]", "protein stability index", 4.39),
]

[Q] Give recorded protein stability index. QPIHLWQFLKELLLKPHSYGRFIR [SPDEF]
[A] 2.65

[Q] Give recorded protein stability index. HSLEYIDLMETTQYMNEGELRVLA [HDAC6]
[A] 3.04

[Q] Give recorded protein stability index. ERKNAEMYKLSSEQFHEAASKMES [CHCHD6]
[A] 5.08

[Q] Give recorded protein stability index. KILAEAAKLVPMGFTTATEFHQRR [RAD51]
[A] 2.7

[Q] Give recorded protein stability index. DRAPAEQVPRSPVIKISYSTPQGK [PWWP2B]
[A] 4.52
